assay: Solubility studies; format: physicochemical; conditions: thermodynamic from solid; water; method B (HPLC assay of filtrates of saturated solutions); read-out: Solubility
observed_property: Solubility
Report the figure along with its unit, number first.

Task: Looking for the measured Solubility of O=C1N(Cc2ccc(CO)cc2)C(Cc2ccccc2)C(O)C(O)C(Cc2ccccc2)N1Cc1ccc(CO)cc1 (stereo not shown) , can you help?
Result: 10 µg/mL

====

observed_property: melting point

Task: Looking for the measured melting point of CCCCCCC1C(O)C(O)C(CCCCCC)N(Cc2ccccc2)C(=O)N1Cc1ccccc1 (centres unmarked) [Example 16AI] , can you help?
Result: 79 to 82 °C

Task: Looking for the measured melting point of C=CCN1C(=O)N(CC=C(C)C)C(Cc2ccccc2)C(O)C(O)C1Cc1ccccc1 (centres unmarked) [Example 2C] , can you help?
Result: 62 °C

Task: Looking for the measured melting point of C=C(C)CN1C(=O)N(CC(=C)C)C(Cc2ccccc2)C(O)C(O)C1Cc1ccccc1 (centres unmarked) [Example 1AJ] , can you help?
Result: 205 to 207 °C

Give melting point for each of the items listed below.
1. O=C1N(CCCCCO)C(Cc2ccccc2)C(O)C(O)C(Cc2ccccc2)N1Cc1ccc2ccccc2c1 (centres unmarked) [Example 15VH]
2. O=C(NCc1ccccc1)Oc1cccc(CN2C(=O)N(Cc3cccc(OC(=O)NCc4ccccc4)c3)C(Cc3ccccc3)C(O)C(O)C2Cc2ccccc2)c1 (centres unmarked) [Example 9L]
3. CC(=O)c1cccc(CN2C(=O)N(Cc3cccc(C(C)=O)c3)C(Cc3ccccc3)C(O)C(O)C2Cc2ccccc2)c1 (centres unmarked) [Example 9P]
4. N#CN=C1N(Cc2cccc(C#N)c2)C(Cc2ccccc2)C(O)C(O)C(Cc2ccccc2)N1Cc1cccc(C#N)c1 (centres unmarked) [Example 1CH]
5. O=C1N(Cc2cccc(C=NO)c2)C(Cc2ccccc2)C(O)C(O)C(Cc2ccccc2)N1Cc1cccc(C=NO)c1 (centres unmarked) [Example 6C]
6. NC(=NO)c1cccc(CN2C(=O)N(Cc3ccc(CO)cc3)C(Cc3ccccc3)C(O)C(O)C2Cc2ccccc2)c1 (centres unmarked) [15AH]

Result:
1: 84.6 °C; 2: 150 °C (dec.); 3: 158 to 159 °C; 4: 108.5 °C; 5: 185 to 189 °C; 6: 198 to 199 °C

====

target: single-chain tethered dimer of HIV protease (Human immunodeficiency virus 1, UniProt P04585); experiment: biochemical; assay type: biochemical
observed_property: Ki

Below: 6 molecules and their reported Ki.
Task: Looking for the measured Ki of COCCN1C(=O)N(CCOC)C(Cc2ccccc2)C(O)C(O)C1Cc1ccccc1 (stereo not shown) , can you help?
Result: 10 to 1000 nM

Task: Looking for the measured Ki of O=C1N(Cc2cccc(CO)c2)C(Cc2ccccc2)C(O)C(O)C(Cc2ccccc2)N1Cc1cccc(CO)c1 (stereo not shown) , can you help?
Result: < 10 nM

Task: Looking for the measured Ki of CCCCN1C(=O)N(CC2CCCC2)C(Cc2ccccc2)C(O)C(O)C1Cc1ccccc1 (stereo not shown) , can you help?
Result: < 10 nM

Task: Looking for the measured Ki of CCCN1C(=O)N(Cc2ccccc2)C(Cc2ccccc2)C(O)C(O)C1Cc1ccccc1 (stereo not shown) , can you help?
Result: < 10 nM

Task: Looking for the measured Ki of CCN1C(=O)N(Cc2ccccc2)C(Cc2ccccc2)C(O)C(O)C1Cc1ccccc1 (stereo not shown) , can you help?
Result: < 10 nM

Task: Looking for the measured Ki of O=C1N(Cc2cc(Cl)cc(Cl)c2)C(Cc2ccccc2)C(O)C(O)C(Cc2ccccc2)N1Cc1cc(Cl)cc(Cl)c1 (stereo not shown) , can you help?
Result: 10 to 1000 nM

Give Ki for each of the items listed below.
1. O=C1NC(Cc2ccccc2)C(O)C(O)C(Cc2ccccc2)N1Cc1ccc2ccccc2c1 (stereo not shown)
2. O=C1NC(Cc2ccccc2)C(O)C(O)C(Cc2ccccc2)N1Cc1ccccc1 (stereo not shown)
3. C=CCOc1cccc(CN2C(=O)N(Cc3cccc(O)c3)C(Cc3ccccc3)C(O)C(O)C2Cc2ccccc2)c1 (stereo not shown)

Result:
1. < 10 nM
2. < 10 nM
3. < 10 nM
